# Assay System: Human PD-L1/PD-1 (Homo sapiens, UniProt Q9NZQ7)
# Construct: TVMV protease cleavage site (C); made in house; host or cells: HEK293T cells
# Sequence (Q9NZQ7 with tags, fused parts or gaps): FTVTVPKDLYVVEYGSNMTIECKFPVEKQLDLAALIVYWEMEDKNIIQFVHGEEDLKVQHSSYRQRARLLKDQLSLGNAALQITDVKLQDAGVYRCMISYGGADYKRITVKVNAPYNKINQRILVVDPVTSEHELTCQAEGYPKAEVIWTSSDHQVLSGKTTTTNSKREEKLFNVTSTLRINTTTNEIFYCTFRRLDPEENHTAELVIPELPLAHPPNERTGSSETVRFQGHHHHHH
# Test Name: HTRF Human PD-L1/PD-1 binding assay (PD-1-Ig/PD-L1-His)
# Setup Conditions: PD-L1-His 10 nM, PD-1-Ig 20 nM; class symbol; read-out: HTRF Human PD-L1/PD-1 Binding Assay IC50 Range
Where a SMILES comes first, the peptide text is derived from it. Bridges are numbered along the chain shown (N, C = ends). [ ]: non-standard residue; d: D form. ξ: configuration not given here. Hyp = O=C(O)[C@@H]1C[C@@H](O)CN1; NMeNle = CCCC[C@H](NC)C(=O)O; NMeA = CN[C@@H](C)C(=O)O; ξC = NC(CS)C(=O)O
Property Measured: IC50

Input line: Would you kindly share the measured IC50 for CCCC[C@H]1C(=O)N(C)[C@@H](CCCC)C(=O)N[C@@H](CO)C(=O)NC(C(=O)NCC(N)=O)CSCC(=O)N[C@@H](Cc2ccc(O)cc2)C(=O)N(C)[C@@H](C)C(=O)N[C@@H](CC(N)=O)C(=O)N2CCC[C@H]2C(=O)N[C@@H](CC(N)=O)C(=O)N[C@@H](CC(C)C)C(=O)N2C[C@H](O)C[C@H]2C(=O)N[C@@H](Cc2c[nH]c3ccccc23)C(=O)N[C@@H](CO)C(=O)N[C@@H](Cc2c[nH]c3ccccc23)C(=O)N1C (some centres unmarked) [Example 9142] ({CH2CO}-Y[NMeA]NPNL[Hyp]WSW[NMeNle][NMeNle]S[ξC]G-NH2; thioether N-14) ?
Output line: 1 to 9.9 nM

Please look at the following compound next.
Input line: Would you kindly share the measured IC50 for CCCC[C@H]1C(=O)N(C)[C@@H](CCCC)C(=O)N[C@@H](CC(C)C)C(=O)N[C@H](C(=O)NCC(N)=O)CSCC(=O)N[C@@H](Cc2ccc(O)cc2)C(=O)N(C)[C@@H](C)C(=O)N[C@@H](CC(N)=O)C(=O)N2CCC[C@H]2C(=O)NCC(=O)N[C@@H](CCC(N)=O)C(=O)N2C[C@H](O)C[C@H]2C(=O)N[C@@H](Cc2c[nH]c3ccccc23)C(=O)NCC(=O)N[C@@H](Cc2c[nH]c3ccccc23)C(=O)N1C [Example 5183] ({CH2CO}-Y[NMeA]NPGQ[Hyp]WGW[NMeNle][NMeNle]LCG-NH2; thioether N-14) ?
Output line: 10 to 99.9 nM
